experiment: Mouse ribonucleotide reductase (mRR) activity was determined by relative dissociation constant which was assayed for binding activity to mR1
Residues, ends and D or L forms follow the SMILES beside them. *: point of attachment. Fmoc = O=C(OCC1c2ccccc2-c2ccccc21)*
observable: Relative Kd

Consider the reported Relative Kd for these compounds:
CC(=O)N[C@@H](Cc1ccccc1)C(=O)N[C@H](C(=O)N[C@@H](CC(C)C)C(=O)N[C@@H](CC(=O)O)C(=O)N[C@@H](C)C(=O)N[C@@H](CC(=O)O)C(=O)N[C@@H](Cc1ccccc1)C(=O)O)[C@@H](C)O (Ac-FTLDADF-OH)
1
O=C(N[C@@H](Cc1ccccc1)C(=O)O)OCC1c2ccccc2-c2ccccc21
22
CC(C)C[C@H](NC(=O)OCC1c2ccccc2-c2ccccc21)C(=O)O
38
O=C(N[C@H](C(=O)O)c1ccccc1)OCC1c2ccccc2-c2ccccc21
31

a: O=C(N[C@@H](Cc1c[nH]c2ccccc12)C(=O)O)OCC1c2ccccc2-c2ccccc21
b: O=C(N[C@@H](Cc1c[nH]c2ccccc12)C(=O)N[C@@H](Cc1ccccc1)C(=O)N[C@@H](Cc1ccccc1)C(=O)O)OCC1c2ccccc2-c2ccccc21 (Fmoc-Trp-Phe-Phe-OH)
Lab log: flag the item ( a or b ) with the smaller Relative Kd figure. Selection: enter the item's label.
b

Sourced from ChEMBL document CHEMBL1135053
